target: ABL1 (Homo sapiens, UniProt P00519); assay: HTS ATP-utilizing enzyme assay, off-chip mobility-shift (Caliper HTS 250); assay type: biochemical; settings: test compound 10 μM, kinase listed = active (greater than six-sigma from the mean activity of inactive compounds)
Sequence (P00519 whole entry): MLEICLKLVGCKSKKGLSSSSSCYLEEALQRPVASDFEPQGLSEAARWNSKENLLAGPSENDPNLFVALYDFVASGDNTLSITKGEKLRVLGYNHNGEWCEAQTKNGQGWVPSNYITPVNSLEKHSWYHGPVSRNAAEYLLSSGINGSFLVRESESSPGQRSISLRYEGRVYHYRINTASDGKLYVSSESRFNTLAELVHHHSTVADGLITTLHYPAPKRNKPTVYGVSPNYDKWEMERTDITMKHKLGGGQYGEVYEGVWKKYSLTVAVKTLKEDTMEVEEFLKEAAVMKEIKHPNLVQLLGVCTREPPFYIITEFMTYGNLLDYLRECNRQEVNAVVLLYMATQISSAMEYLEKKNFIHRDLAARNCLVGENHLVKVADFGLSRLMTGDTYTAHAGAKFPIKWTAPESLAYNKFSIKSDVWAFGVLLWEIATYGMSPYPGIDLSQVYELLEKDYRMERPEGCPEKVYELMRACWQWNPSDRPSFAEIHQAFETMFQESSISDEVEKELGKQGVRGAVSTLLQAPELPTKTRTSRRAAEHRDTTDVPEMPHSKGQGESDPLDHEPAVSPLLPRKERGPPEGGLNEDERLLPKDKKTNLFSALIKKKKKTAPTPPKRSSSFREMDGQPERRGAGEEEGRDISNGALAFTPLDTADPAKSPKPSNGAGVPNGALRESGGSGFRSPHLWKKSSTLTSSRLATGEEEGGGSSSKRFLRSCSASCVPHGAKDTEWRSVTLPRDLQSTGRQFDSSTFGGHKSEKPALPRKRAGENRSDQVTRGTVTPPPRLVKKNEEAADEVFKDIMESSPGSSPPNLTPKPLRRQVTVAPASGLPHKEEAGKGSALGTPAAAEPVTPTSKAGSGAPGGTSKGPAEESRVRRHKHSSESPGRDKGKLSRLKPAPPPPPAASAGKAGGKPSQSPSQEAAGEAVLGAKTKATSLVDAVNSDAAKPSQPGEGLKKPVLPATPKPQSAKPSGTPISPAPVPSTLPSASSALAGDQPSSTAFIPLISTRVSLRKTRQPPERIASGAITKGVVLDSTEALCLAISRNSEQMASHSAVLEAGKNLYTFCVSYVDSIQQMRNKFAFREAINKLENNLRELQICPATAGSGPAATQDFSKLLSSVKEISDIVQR

{"smiles_record": "CN1CCN(c2ccc(Nc3ccnc4ccc(-c5csc6ccccc56)cc34)cc2)CC1", "Activity": "ABL1"}
{"smiles_record": "CN1CCN(c2ccc(Nc3ccnc4ccc(-c5cccc(O)c5)cc34)cc2)CC1", "Activity": "ABL1"}
{"smiles_record": "CN1CCN(c2ccc(Nc3ccnc4ccc(-c5ccccc5-c5ccccc5)cc34)cc2)CC1", "Activity": "ABL"}
{"smiles_record": "CN1CCN(c2ccc(Nc3ccnc4ccc(-c5cccc6ccccc56)cc34)cc2)CC1", "Activity": "ABL1"}
